# targetDesc: Human HER3, endogenous, on human cancer cell lines (SK-Br-3, MCF7, BT-474) (human, UniProt P21860 20-1342)
# Sequence (P21860 20-1342): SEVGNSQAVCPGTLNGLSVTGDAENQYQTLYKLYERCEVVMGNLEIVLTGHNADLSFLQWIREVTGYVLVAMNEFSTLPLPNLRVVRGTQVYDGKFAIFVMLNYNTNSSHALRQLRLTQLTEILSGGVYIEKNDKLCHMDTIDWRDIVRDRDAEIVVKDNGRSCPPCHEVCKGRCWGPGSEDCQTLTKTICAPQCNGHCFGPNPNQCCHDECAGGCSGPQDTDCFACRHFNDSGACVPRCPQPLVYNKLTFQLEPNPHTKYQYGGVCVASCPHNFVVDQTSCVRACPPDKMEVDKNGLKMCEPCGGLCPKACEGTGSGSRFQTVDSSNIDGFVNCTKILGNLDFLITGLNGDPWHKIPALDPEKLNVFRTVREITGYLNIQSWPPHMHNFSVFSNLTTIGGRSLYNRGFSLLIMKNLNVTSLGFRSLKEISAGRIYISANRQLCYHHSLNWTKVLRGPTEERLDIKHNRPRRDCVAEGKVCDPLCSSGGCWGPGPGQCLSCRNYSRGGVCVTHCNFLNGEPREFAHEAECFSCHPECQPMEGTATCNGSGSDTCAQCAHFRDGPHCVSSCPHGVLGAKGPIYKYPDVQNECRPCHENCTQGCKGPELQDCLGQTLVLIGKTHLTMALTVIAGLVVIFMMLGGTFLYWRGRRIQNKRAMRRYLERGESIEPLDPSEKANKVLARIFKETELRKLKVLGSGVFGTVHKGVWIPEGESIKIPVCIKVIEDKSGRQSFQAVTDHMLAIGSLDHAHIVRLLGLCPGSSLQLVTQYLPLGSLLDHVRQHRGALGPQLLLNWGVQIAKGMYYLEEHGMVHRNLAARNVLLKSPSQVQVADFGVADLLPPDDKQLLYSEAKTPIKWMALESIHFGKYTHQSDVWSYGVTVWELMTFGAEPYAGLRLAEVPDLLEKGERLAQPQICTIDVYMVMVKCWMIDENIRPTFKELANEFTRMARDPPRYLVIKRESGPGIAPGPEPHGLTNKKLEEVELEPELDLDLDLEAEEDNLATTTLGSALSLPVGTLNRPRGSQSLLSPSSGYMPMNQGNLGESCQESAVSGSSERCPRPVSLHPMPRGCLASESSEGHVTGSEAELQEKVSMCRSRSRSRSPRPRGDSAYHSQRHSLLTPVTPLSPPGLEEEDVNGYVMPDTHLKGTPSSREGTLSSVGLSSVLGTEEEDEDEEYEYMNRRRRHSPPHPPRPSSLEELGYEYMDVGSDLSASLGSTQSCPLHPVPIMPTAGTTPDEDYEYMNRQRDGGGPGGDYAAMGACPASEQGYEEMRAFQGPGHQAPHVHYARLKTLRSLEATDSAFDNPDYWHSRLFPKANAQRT
# experimentNotes: cell-based or functional assay
quantityKind: MCF7 pAkt (S473) IC50 (pM)
Field format: number, assumed pM, no unit text.

{"columns": ["binder", "unitAbbreviation", "MCF7 pAkt (S473) IC50"],
 "data": [
  ["MOR13765 (antibody, human IgG1, kappa, V domains shown, tested as IgG) VH: QVQLVQSGAEVKKPGESLKISCKGSGYSFTGSWVAWVRQMPGKGLEWMGIIYPGTSDTIYSPSFQGQVTISADKSISTAYLQWSSLKASDTAMYYCARVHIIQPPSAWSYNAMDVWGQGTLVTVSS VL: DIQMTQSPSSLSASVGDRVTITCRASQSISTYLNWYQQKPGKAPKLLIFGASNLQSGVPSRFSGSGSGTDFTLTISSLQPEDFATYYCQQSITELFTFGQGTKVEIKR", "pM", 412]
]}

// next item, MCF7 pAkt (S473) IC50 requested
## Task I have this binder here, MOR13755 (antibody, human IgG1, kappa, V domains shown, tested as IgG) VH: QVQLVQSGAEVKKPGESLKISCKGSGYSFTTYWVAWVRQMPGKGLEWMGIIYPGQSDTIYSPSFQGQVTISADKSISTAYLQWSSLKASDTAMYYCARVHIIQPPSAWSYNAMDVWGQGTLVTVSS VL: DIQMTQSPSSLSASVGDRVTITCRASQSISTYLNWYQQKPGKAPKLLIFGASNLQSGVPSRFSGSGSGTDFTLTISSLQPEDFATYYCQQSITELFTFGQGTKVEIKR , and I need its recorded MCF7 pAkt (S473) IC50.
## Result 468
